B1: LINE1-full (parent)
chain: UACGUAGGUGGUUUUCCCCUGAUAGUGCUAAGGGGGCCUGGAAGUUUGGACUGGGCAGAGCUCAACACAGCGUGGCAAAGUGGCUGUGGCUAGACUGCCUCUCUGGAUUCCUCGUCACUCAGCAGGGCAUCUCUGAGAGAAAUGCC

- Variants of: B1
- PROCEDURE TEXT: self-cleavage, relative activity (ratio to wild type); higher = more cleavage; in vitro, sequencing; the parent is a self-cleaving ribozyme
PROPERTY: self-cleavage
Number only, no unit.

UACGUAGGUGGUUUUCCCCUGAUAGUGCCAAGGGGGCCUGGAAGUUUGGACUGGGCAGAGCUCAACACAGCGUGGCAAAGUGGCUGUGGCUAGACUGCCUCUCUGGAUUCCUCGUCACUCAGCAAGGCAUCUCUGAGAGAAAUGCC    0.94
UACGUAGGUGGUUUUCUCCUGAUAGUGCUAAGGGGGCCUGGAAGUUUGGACUGGGCAGAGCUCAUCACAGCGUGGCAAAGUGGCUGUGGCUAGACUGCCUCUCUGGAUUCCUCGUCACUCAGCAGGGCAUCUCUGAGAGAAAUGCC    0.07
UACGUAGGCGGUUUUCCCCUGAUAGUGCUAAGGGGGCCUGGAAGUUUGGACUGGGCAGAGCUCAACACAGCGUGGCAAAGUGGCUGUGGCUAGACUGCCUCUCUGGAUACCUCGUCACUCAGCAGGGCAUCUCUGAGAGAAAUGCC    1.37
UACGUAGGUGGUUUUCCCCUGAUAGUGCUAAGGGGGCCUGGGAGUUUGGACUGGGCAGAGCUCAACACAGCGUGGCAAAGUGGCUGUGGCUAGACUGCCUCUCUGGAUUCCUCGUCACUCAGCAGGGCAUCUCUGUGAGAAAUGCC    1.4
UACGUAGGUGGUUUUCCCCAGAUAGUGCUAAGGGGGCCUGGAAGUUUGGACUGGGCAGAGCUCAACACAGCGUGGCAAAGUGGCUGUGGCUAGACUGCCUCUCUGGAUUCCUCGUCACUCAGCAGGGCAUCUCAGAGAGAAAUGCC    0.92

q: Fill blank: measured self-cleavage of the variant UACGUAGGUGGUUUACCCCUGAUAGUGCUAAGGGGGCCUGGAAGUUUGGACUGGGCAGAGCUCAACACAGCGUGGCAAAGUGGCAGUGGCUAGACUGCCUCUCUGGAUUCCUCGUCACUCAGCAGGGCAUCUCUGAGAGAAAUGCC is ____.
a: 0.11

q: Fill blank: measured self-cleavage of the variant UACGUAGGUGGUUUUCCCCUGAUAGUGCUAAGGGGGCUUGGAAGUUUGGACUGGGCAGAGCUCAACACAGCGUGGCAAAGUGGCUGUGGCUAGACAGCCUCUCUGGAUUCCUCGUCACUCAGCAGGGCAUCUCUGAGAGAAAUGCC is ____.
a: 0.04

q: Fill blank: measured self-cleavage of the variant UACGUAGGUGGUCUACCCCUGAUAGUGCUAAGGGGGCCUGGAAGUUUGGACUGGGCAGAGCUCAACACAGCGUGGCAAAGUGGCUGUGGCUAGACUGCCUCUCUGGAUUCCUCGUCACUCAGCAGGGCAUCUCUGAGAGAAAUGCC is ____.
a: 0.79

q: Fill blank: measured self-cleavage of the variant UACGUAGGUGGUCUUCCCCUGAUAGUGCUAAGGGGGCCUGGAAGUUUGGACUGGGCAGAGCUCAACACAGCGUGGCAAAGUGGCUGUGGCUAGACUGCCUCUCUGGAUUCCUCGUCACUCAGCAGGGCAUCUCUGAGAGACAUGCC is ____.
a: 1.59

q: Fill blank: measured self-cleavage of the variant UACGUGGGUGGUUUUCCCCUGAUAGUGCUAAGGGGGCCUGGAAGUUUGGACUGGGCAGAGCGCAACACAGCGUGGCAAAGUGGCUGUGGCUAGACUGCCUCUCUGGAUUCCUCGUCACUCAGCAGGGCAUCUCUGAGAGAAAUGCC is ____.
a: 0.11

q: Fill blank: measured self-cleavage of the variant UACGUAGGUGGUUUUCCCCUGAUAGUGCUAAGGGGGCCUGGAAGUUUGGACUGGGCAGAGCUCAACACAGCGUGGCUAAGAGGCUGUGGCUAGACUGCCUCUCUGGAUUCCUCGUCACUCAGCAGGGCAUCUCUGAGAGAAAUGCC is ____.
a: 1.89

q: Fill blank: measured self-cleavage of the variant UACGUAGGUGGUUUUCCCCUGAUAGUGCUAAGGGGGCCUGGAAGUUUGGACUGGGCAGAGCUCAACACAGCGUGGCAAAGUGGCUGUGGCUAGACUGCCUUUCUGGAUUCCUCAUCACUCAGCAGGGCAUCUCUGAGAGAAAUGCC is ____.
a: 1.37

q: Fill blank: measured self-cleavage of the variant UACGUAGGUGGUUUUCCCCGGAUAGUGCUAAGGGGGCCUGGAAGUUUGGACUGGGCAGAGCUCAACACAGCGUGGCAAAGUGGCUGUGGCAAGACUGCCUCUCUGGAUUCCUCGUCACUCAGCAGGGCAUCUCUGAGAGAAAUGCC is ____.
a: 0.47

q: Fill blank: measured self-cleavage of the variant UACGUAGGUGGUUUUCCCCUGAUAGUGCUAAGGGGGCCUGGAAGUUUGGACUGGGCAGAGCUCAACACAGCGUGGCAAAGUGGCUGUGGCUAGACUGCCCCUCUGGAAUCCUCGUCACUCAGCAGGGCAUCUCUGAGAGAAAUGCC is ____.
a: 1.42

q: Fill blank: measured self-cleavage of the variant UACGUAGGUGGUUUUCCCCUGAUAGUGCUAAGGGGGCCUGGAAGUUUGGACUGGGCAGAGCUCAACACAGCGUGGCAAAGUGGCUGUGGCUAGACUGCCUCUCUGGAUUCCUCGUCACUCAGCAGGGCAUCCUUGAGAGAAAUGCC is ____.
a: 1.4

q: Fill blank: measured self-cleavage of the variant UACGUAGGUGGUUUUCCCCUGAUAGUGCUAAGGGGGCCUGAAAGUUUGGACUGGGCAGAGCUCAGCACAGCGUGGCAAAGUGGCUGUGGCUAGACUGCCUCUCUGGAUUCCUCGUCACUCAGCAGGGCAUCUCUGAGAGAAAUGCC is ____.
a: 0.03

q: Fill blank: measured self-cleavage of the variant UACGUAGGUGGUUUUCCCCUGAUAGUGCUAAGGGGGCCUGGAAGUUUGGACUGGGCAGAGCUCAACACAGCGUGGCAAAGUGGCUGUGGCUAGACUGCCUCUCUGGAUUCCGCGUCACUCAGCAGGGCAUCUCUGUGAGAAAUGCC is ____.
a: 0.88

q: Fill blank: measured self-cleavage of the variant UACGUAGGUGGUUUUCCCCUGAUAGUGCUGAGGGGGCCUGGAAGUUUGGACUGGGCAGAGCUCAACACAGCGUGGCAAAGUGGCUGUGGCUAGACUGCCUCUCUGGAUUCCUCGUCACUCAGCAGGGCAUCUCUGAGAAAAAUGCC is ____.
a: 1.31

q: Fill blank: measured self-cleavage of the variant UACGUAGGUGGCUUUCCCCGGAUAGUGCUAAGGGGGCCUGGAAGUUUGGACUGGGCAGAGCUCAACACAGCGUGGCAAAGUGGCUGUGGCUAGACUGCCUCUCUGGAUUCCUCGUCACUCAGCAGGGCAUCUCUGAGAGAAAUGCC is ____.
a: 0.78

q: Fill blank: measured self-cleavage of the variant UACGUAGGUGGUUUUCCCCUGAUAGUGCUAAGGGGGCCUGGAAAUUUGGACUGGGCAGAGCUCAACACAGCGUGGCAAAGUGGCUGUGGCUAGACUGCCUCUCUGGAUCCCUCGUCACUCAGCAGGGCAUCUCUGAGAGAAAUGCC is ____.
a: 1.09

q: Fill blank: measured self-cleavage of the variant UACGUAGGUGGUUUUCCCCUGAUAGUGCUAAGGGGGCCUGGAAGUUUGGACUGGGCAGAGCUCAACGCAGCGUGGCAUAGUGGCUGUGGCUAGACUGCCUCUCUGGAUUCCUCGUCACUCAGCAGGGCAUCUCUGAGAGAAAUGCC is ____.
a: 0.65

q: Fill blank: measured self-cleavage of the variant UACGUAGGUGGUUUUCCCCUGAUAGUGCUAAGGGGGCCUGGAAGUUUGGACGGGGCAGAGCUCAACACAGCGUGGCAAAGUGGCUGUGGCUAGACUGCCUCUCUGGAUUCCUCGUCACUCAGCAGGGCAUCUCUGAGAGAAGUGCC is ____.
a: 0.51
